target: T1, human LILRA6 (human, UniProt Q6PI73 24-481); experiment: flow cytometry, LILRA6 CHOs
T1 construct: Over-expressed on CHO-s cells; also called hLILRA6
T1 sequence (Q6PI73 24-481 limits assumed): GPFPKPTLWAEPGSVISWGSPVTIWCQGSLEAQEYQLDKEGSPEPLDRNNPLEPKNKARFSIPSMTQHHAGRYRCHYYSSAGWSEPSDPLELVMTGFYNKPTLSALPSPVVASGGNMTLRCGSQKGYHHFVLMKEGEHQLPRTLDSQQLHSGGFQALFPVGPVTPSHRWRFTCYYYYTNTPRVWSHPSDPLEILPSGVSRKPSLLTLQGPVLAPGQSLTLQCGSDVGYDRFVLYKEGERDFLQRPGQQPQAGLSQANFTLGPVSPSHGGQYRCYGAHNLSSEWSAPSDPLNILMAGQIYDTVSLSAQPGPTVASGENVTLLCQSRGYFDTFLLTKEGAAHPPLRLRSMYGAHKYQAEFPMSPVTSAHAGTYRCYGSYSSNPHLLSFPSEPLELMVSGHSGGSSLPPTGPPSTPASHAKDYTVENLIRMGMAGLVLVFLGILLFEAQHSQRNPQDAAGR
readout.name: binding (fold over iso)
Expressed in fold over iso, but write only the number.

input: Recorded binding (fold over iso) of J-04 (antibody, human IgG4 S228P, kappa, V domains shown, Human IgG4 chimera of murine origin) VH: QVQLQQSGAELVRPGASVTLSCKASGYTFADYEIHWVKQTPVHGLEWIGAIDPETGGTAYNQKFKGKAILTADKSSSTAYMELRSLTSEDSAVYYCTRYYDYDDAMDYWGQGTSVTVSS VL: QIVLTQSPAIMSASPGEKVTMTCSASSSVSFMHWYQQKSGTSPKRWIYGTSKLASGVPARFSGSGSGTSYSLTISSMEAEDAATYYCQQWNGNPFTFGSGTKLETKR , please.
output: 1.3

input: Do the same for J-11 (antibody, human IgG4 S228P, kappa, V domains shown, Human IgG4 chimera of murine origin; also called J-11.h) VH: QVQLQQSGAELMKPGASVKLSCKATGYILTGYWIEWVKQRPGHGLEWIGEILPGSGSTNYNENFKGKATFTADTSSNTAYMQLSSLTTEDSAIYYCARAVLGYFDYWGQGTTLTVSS VL: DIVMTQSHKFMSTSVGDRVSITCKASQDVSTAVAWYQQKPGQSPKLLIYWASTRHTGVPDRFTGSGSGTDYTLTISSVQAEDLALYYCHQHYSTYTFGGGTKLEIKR please
output: 1

input: Next binder up: J-03 (antibody, human IgG4 S228P, kappa, V domains shown, Human IgG4 chimera of murine origin) VH: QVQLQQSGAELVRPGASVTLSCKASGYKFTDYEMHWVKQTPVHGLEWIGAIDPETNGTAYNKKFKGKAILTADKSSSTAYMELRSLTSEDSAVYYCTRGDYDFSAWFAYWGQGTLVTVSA VL: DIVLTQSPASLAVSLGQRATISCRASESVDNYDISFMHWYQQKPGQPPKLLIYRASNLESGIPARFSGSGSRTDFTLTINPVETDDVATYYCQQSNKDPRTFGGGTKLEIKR
output: 1.23

input: Consider next the binder J-19 (antibody, human IgG4 S228P, kappa, V domains shown, Human IgG4 chimera from a rat immunization; also called J-19.h) VH: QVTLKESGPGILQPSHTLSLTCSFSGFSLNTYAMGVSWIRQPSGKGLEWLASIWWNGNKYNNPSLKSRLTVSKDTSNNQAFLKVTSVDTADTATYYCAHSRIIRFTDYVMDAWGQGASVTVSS VL: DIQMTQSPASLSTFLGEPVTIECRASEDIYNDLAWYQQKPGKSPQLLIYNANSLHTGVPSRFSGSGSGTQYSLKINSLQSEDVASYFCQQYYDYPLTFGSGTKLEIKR in the same way.
output: 1.07
